Molecular target: Rho-associated protein kinase 2 (Homo sapiens)
Conditions: at 1 µM
Description: GSK_PKIS: ROCK2 mean inhibition at 1 uM [Nanosyn]
// False strictly below 4% in inhibition; True otherwise

Solved cases (6 shown):
1) CC(C)(CO)CNC(=O)c1ccc2c(c1)/C(=N/Nc1ccc(S(N)(=O)=O)cc1)C(=O)N2 ... True
2) NS(=O)(=O)c1ccc(Nc2ncc(-c3ccccc3)o2)cc1 ... True
3) CCc1nn2ncccc2c1-c1ccnc(NC2CC2)n1 ... False
4) COC(=O)c1sc(-n2cnc3cc(OC)c(OC)cc32)cc1OCc1ccccc1C(F)(F)F ... False
5) CCn1c(-c2nonc2N)nc2ccccc21 ... True
6) Fc1cccc(COc2ccc(Nc3ncnc4sc(-c5ccco5)cc34)cc2Cl)c1 ... True

IN: Could you tell me if the measured inhibition of COc1ccc2c(-c3ccnc(Nc4cccc(OC(F)(F)F)c4)n3)cnn2n1 reaches 4% or more?
OUT: True

IN: Reported inhibition at or above 4%? CCn1cc(-c2ccnc3[nH]ccc23)c(-c2cccc(NC(=O)Nc3ccc(OCc4ccccc4)cc3)c2)n1
OUT: True

IN: Is inhibition at least 4%? Consider CCN1CCC(CC(=O)Nc2n[nH]c3nnc(-c4cccc(F)c4F)cc23)CC1
OUT: False

IN: Determine whether this compound has inhibition no lower than 4%: Nc1ncc(-c2cccc(S(N)(=O)=O)c2)c2scc(-c3ccc(F)c(Cl)c3)c12
OUT: False

Value source: ChEMBL document CHEMBL1961873
